Values compiled from patent US7598389B2.

# Test summary: log P determination by HPLC on reverse-phase column (EEC Directive 79/831 Annex V.A8)
# Assay type: physicochemical
# Experimental context: pH 2.3, C 18 reverse-phase column, 43° C.
chromatographic logP by entry:

- Compound: "CC(C[Si](C)(C)C)c1ccccc1N (stereo not shown)"
  chromatographic logP: 3.05
- Compound: "C[Si](C)(C)CCc1ccccc1NC(=O)c1ccccc1Br"
  chromatographic logP: 4.32
- Compound: "C[Si](C)(C)C#Cc1ccccc1[N+](=O)[O-]"
  chromatographic logP: 4.12
- Compound: "C[Si](C)(C)CCc1ccccc1N"
  chromatographic logP: 2.58

* * *

# Test system: Venturia inaequalis
# Test summary: Venturia test (apple)/protective
# Type: in vivo
# Experimental context: 240 h, apple plants, protective, application rate 100 g/ha, evaluation 10 days after inoculation, read-out: Efficacy in %
# Protocol: Venturia Test (Apple)/Protective To produce a suitable preparation of active compound, 1 part by weight of active compound is mixed with the stated amounts of solvent and emulsifier, and the concentrate is diluted with water to the desired concentration. To test for protective activity, young plants are sprayed with the preparation of active compound at the stated application rate. […]
pest or weed control at 100 g/ha by entry:

- Molecule: "C[Si](C)(C)CCc1ccccc1NC(=O)c1ccccc1Br [drawing 57]"
  Scale unit: "%"
  pest or weed control at 100 g/ha: 87
- Molecule: "C[Si](C)(C)CCc1ccccc1NC(=O)c1ccccc1C(F)(F)F [drawing 56]"
  Scale unit: "%"
  pest or weed control at 100 g/ha: 84
- Molecule: "CC(C[Si](C)(C)C)c1ccccc1NC(=O)c1cn(C)nc1I (centres unmarked) [drawing 64]"
  Scale unit: "%"
  pest or weed control at 100 g/ha: 99
- Molecule: "Cn1nc(C(F)(F)F)c(C(=O)Nc2ccccc2CC[Si](C)(C)C)c1F [drawing 58]"
  Scale unit: "%"
  pest or weed control at 100 g/ha: 100
- Molecule: "Cc1ccsc1C(=O)Nc1ccccc1CC[Si](C)(C)C [drawing 60]"
  Scale unit: "%"
  pest or weed control at 100 g/ha: 100
- Molecule: "Cn1cc(C(=O)Nc2ccccc2CC[Si](C)(C)C)c(I)n1 [drawing 59]"
  Scale unit: "%"
  pest or weed control at 100 g/ha: 100
- Molecule: "CC(C[Si](C)(C)C)c1ccccc1NC(=O)c1occc1I (centres unmarked) [drawing 62]"
  Scale unit: "%"
  pest or weed control at 100 g/ha: 100
- Molecule: "CC(C[Si](C)(C)C)c1ccccc1NC(=O)c1ccccc1I (centres unmarked) [drawing 55]"
  Scale unit: "%"
  pest or weed control at 100 g/ha: 100
- Molecule: "C[Si](C)(C)CCc1cc(F)ccc1NC(=O)c1sccc1I [drawing 61]"
  Scale unit: "%"
  pest or weed control at 100 g/ha: 100
- Molecule: "CC(C[Si](C)(C)C)c1ccccc1NC(=O)c1ccccc1C(F)(F)F (centres unmarked) [drawing 54]"
  Scale unit: "%"
  pest or weed control at 100 g/ha: 99
- Molecule: "CC(C[Si](C)(C)C)c1ccccc1NC(=O)c1sccc1I (centres unmarked) [drawing 63]"
  Scale unit: "%"
  pest or weed control at 100 g/ha: 100

* * *

# Test summary: log P determination by HPLC on reverse-phase column (EEC Directive 79/831 Annex V.A8)
# Type: physicochemical
# Experimental context: Table 1, C 18 reverse-phase column, 43° C., acidic range (pH 2.3)

- Compound: "Cn1cc(C(=O)Nc2ccccc2CC[Si](C)(C)C)c(Cl)n1 [Example 14]"
  logP: 3.89
- Compound: "C[Si](C)(C)CCc1cc(F)ccc1NC(=O)c1sccc1I [Example 25]"
  logP: 4.79
- Compound: "C[Si](C)(C)C#Cc1ccccc1NC(=O)c1ccccc1Cl [Example 20]"
  logP: 4.96
- Compound: "CC(C[Si](C)(C)C)c1ccccc1NC(=O)c1sccc1I (racemic) [Example 12]"
  logP: 5.05
- Compound: "C[Si](C)(C)CCc1cc(F)ccc1NC(=O)c1ccccc1C(F)(F)F [Example 26]"
  logP: 4.39
- Compound: "Cn1nc(C(F)(F)F)c(C(=O)Nc2ccccc2CC[Si](C)(C)C)c1F [Example 10]"
  logP: 4.19
- Compound: "CC(C[Si](C)(C)C)c1cc(F)ccc1NC(=O)c1ccccc1C(F)(F)F (racemic) [Example 22]"
  logP: 4.61
- Compound: "Cc1occc1C(=O)Nc1ccccc1CC[Si](C)(C)C [Example 16]"
  logP: 4.03
- Compound: "CC(C[Si](C)(C)C)c1ccccc1NC(=O)c1ccccc1I (racemic) [Example 2]"
  logP: 4.67

* * *

# Test summary: log P determination by HPLC on reverse-phase column (EEC Directive 79/831 Annex V.A8)
# Type: physicochemical
# Experimental context: Table 1, C 18 reverse-phase column, 43° C., acidic range (pH 2.3)
Quantity: logP

- Compound: "Cn1cc(C(=O)Nc2ccccc2CC[Si](C)(C)C)c(C(Cl)Cl)n1"
  Measured result: 3.95
- Compound: "CC(C[Si](C)(C)C)c1ccccc1NC(=O)c1cn(C)nc1I (racemic)"
  Measured result: 3.94
- Compound: "CC(C[Si](C)(C)C)c1ccccc1NC(=O)c1ccccc1C(F)(F)F (racemic)"
  Measured result: 4.63
- Compound: "C[Si](C)(C)CCc1ccccc1NC(=O)c1ccccc1I"
  Measured result: 4.40
- Compound: "C[Si](C)(C)C#Cc1ccccc1NC(=O)c1ccccc1I"
  Measured result: 4.97
- Compound: "C[Si](C)(C)C#Cc1ccccc1NC(=O)c1ccccc1Br"
  Measured result: 4.93

* * *

# Test summary: log P determination by HPLC on reverse-phase column (EEC Directive 79/831 Annex V.A8)
# Type: physicochemical
# Experimental context: Table 1, C 18 reverse-phase column, 43° C., acidic range (pH 2.3)

- Compound: "Cn1cc(C(=O)Nc2ccccc2CC[Si](C)(C)C)c(I)n1"
  logP: 3.68
- Compound: "CC(C[Si](C)(C)C)c1cc(F)ccc1NC(=O)c1ccccc1I (racemic)"
  logP: 4.64
- Compound: "C[Si](C)(C)CCc1ccccc1NC(=O)c1ccccc1Cl"
  logP: 4.29
- Compound: "C[Si](C)(C)CCc1ccccc1NC(=O)c1ccccc1C(F)(F)F"
  logP: 4.37
- Compound: "C[Si](C)(C)C#Cc1ccccc1NC(=O)c1ccccc1C(F)(F)F"
  logP: 4.78
- Compound: "CC(C[Si](C)(C)C)c1ccccc1NC(=O)c1occc1I (racemic)"
  logP: 4.73
- Compound: "Cc1occc1C(=O)Nc1ccccc1C(C)C[Si](C)(C)C (racemic)"
  logP: 4.33
- Compound: "C[Si](C)(C)CCc1ccccc1NC(=O)c1sccc1I"
  logP: 4.85
- Compound: "CC(C[Si](C)(C)C)c1ccccc1NC(=O)c1ccccc1Br (racemic)"
  logP: 4.58
